This collection of values is drawn from ChEMBL document CHEMBL5033993.

assayedTarget: Programmed cell death protein 1/Programmed cell death 1 ligand 1 (Homo sapiens, UniProt Q15116+Q9NZQ7)
Sequence (Q15116 whole entry): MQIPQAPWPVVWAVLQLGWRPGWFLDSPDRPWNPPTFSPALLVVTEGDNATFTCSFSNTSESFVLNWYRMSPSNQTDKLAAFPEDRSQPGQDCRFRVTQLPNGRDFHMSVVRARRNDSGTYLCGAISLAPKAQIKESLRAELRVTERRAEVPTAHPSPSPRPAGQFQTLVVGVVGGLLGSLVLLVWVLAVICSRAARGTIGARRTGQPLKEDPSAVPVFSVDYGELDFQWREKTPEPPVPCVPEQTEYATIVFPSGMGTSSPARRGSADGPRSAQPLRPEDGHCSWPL
Sequence (Q9NZQ7 whole entry): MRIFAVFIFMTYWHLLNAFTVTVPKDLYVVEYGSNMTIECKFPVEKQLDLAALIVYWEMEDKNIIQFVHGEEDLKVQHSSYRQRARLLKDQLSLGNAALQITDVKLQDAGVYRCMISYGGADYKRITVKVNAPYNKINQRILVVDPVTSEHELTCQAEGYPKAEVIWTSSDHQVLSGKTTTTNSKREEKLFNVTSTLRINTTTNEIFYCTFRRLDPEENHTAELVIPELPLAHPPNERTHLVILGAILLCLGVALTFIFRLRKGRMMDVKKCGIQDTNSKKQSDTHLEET
assayDetails: Inhibition of human PD-1/PD-L1 interaction assessed as disruption of PD-1/PD-L1 complex incubated for 2 hrs by Tag-1 Eu3+ and anti-Tag2-XL665 based HTRF assay
pIC50: −log10 of the molar value.
Below, each of the compounds is paired with its reported pIC50 value.
recordedEndpoint: pIC50

smilesCode: Cc1c(COc2ccc(CN3CCC[C@H]3C(=O)NCC(C)(C)O)cc2[N+](=O)[O-])cccc1-c1ccccc1
measuredValue: 7.15

smilesCode: Cc1c(COc2ccc(CNCCCNC(CO)CO)cc2[N+](=O)[O-])cccc1-c1ccccc1
measuredValue: 7.54

smilesCode: Cc1c(COc2ccc(CN3CCCC[C@H]3C(=O)N3CCC[C@H]3C(=O)O)cc2[N+](=O)[O-])cccc1-c1ccccc1
measuredValue: 7.83

smilesCode: Cc1c(COc2cc(OCc3cccc(C#N)c3)c(CNC(CO)CO)cc2[N+](=O)[O-])cccc1-c1ccccc1
measuredValue: 8.11

smilesCode: CSCC[C@H](NCc1ccc(OCc2cccc(-c3ccccc3)c2C)c([N+](=O)[O-])c1)C(=O)O
measuredValue: 7.75

smilesCode: Cc1c(COc2ccc(CN(C)CC(=O)O)cc2[N+](=O)[O-])cccc1-c1ccccc1
measuredValue: 7.68

smilesCode: Cc1c(COc2ccc(CN3CCCC[C@H]3C(=O)N[C@H](C(=O)O)[C@@H](C)O)cc2[N+](=O)[O-])cccc1-c1ccccc1
measuredValue: 7.57

smilesCode: C[C@@H](O)[C@H](NCc1ccc(OCc2cccc(-c3ccccc3)c2Br)c([N+](=O)[O-])c1)C(=O)O
measuredValue: 6.45

smilesCode: Cc1c(COc2cc(OCc3cccnc3)c(CN3CCCC[C@H]3C(=O)O)cc2[N+](=O)[O-])cccc1-c1ccccc1
measuredValue: 8.06

smilesCode: CC(=O)NCCNCc1ccc(OCc2cccc(-c3ccccc3)c2C)c([N+](=O)[O-])c1
measuredValue: 7.88

smilesCode: Cc1c(COc2ccc(CN(CCO)CCO)cc2[N+](=O)[O-])cccc1-c1ccccc1
measuredValue: 7.67

smilesCode: Cc1c(COc2ccc(CNCCO)cc2[N+](=O)[O-])cccc1-c1ccccc1
measuredValue: 7.93

smilesCode: Cc1c(COc2cc(OCc3ccnc(C#N)c3)c(CN3CCCC[C@H]3C(=O)O)cc2[N+](=O)[O-])cccc1-c1ccccc1
measuredValue: 7.99

smilesCode: Cc1c(COc2ccc(CN3CCC[C@H]3C(=O)N[C@H](C(=O)O)[C@@H](C)O)cc2[N+](=O)[O-])cccc1-c1ccccc1
measuredValue: 7.25

smilesCode: Cc1c(COc2ccc(CN3CCCC[C@H]3C(=O)N[C@@H](CO)C(=O)O)cc2[N+](=O)[O-])cccc1-c1ccccc1
measuredValue: 7.91

smilesCode: Cc1c(COc2cc(OCc3cccc(C#N)c3)c(CN3CCC[C@H]3C(=O)O)cc2[N+](=O)[O-])cccc1-c1ccccc1
measuredValue: 7.64

smilesCode: Cc1c(COc2ccc(CNCCC(=O)O)cc2[N+](=O)[O-])cccc1-c1ccccc1
measuredValue: 7.40

smilesCode: Cc1c(COc2ccc(CN[C@@H](CO)C(=O)O)c(OCc3cccc(C#N)c3)c2)cccc1-c1ccccc1
measuredValue: 7.52

smilesCode: Cc1c(COc2ccc(CN3CCC[C@H]3C(=O)N[C@@H](CO)C(=O)O)cc2[N+](=O)[O-])cccc1-c1ccccc1
measuredValue: 7.14

smilesCode: Cc1c(COc2cc(OCc3ccnc(C#N)c3)c(CN[C@H](C(=O)O)[C@@H](C)O)cc2[N+](=O)[O-])cccc1-c1ccccc1
measuredValue: 7.99

smilesCode: Cc1c(COc2ccc(CN[C@@H](CO)C(=O)O)cc2[N+](=O)[O-])cccc1-c1ccccc1
measuredValue: 7.56

smilesCode: Cc1c(COc2cc(OCc3cccnc3)c(CN[C@@H](CO)C(=O)O)cc2[N+](=O)[O-])cccc1-c1ccccc1
measuredValue: 7.75

smilesCode: CC(=O)NCCNC(=O)[C@@H]1CCCN1Cc1ccc(OCc2cccc(-c3ccccc3)c2C)c([N+](=O)[O-])c1
measuredValue: 7.25

smilesCode: Cc1c(COc2ccc(CNC(CO)CO)cc2[N+](=O)[O-])cccc1-c1ccccc1
measuredValue: 8.05

smilesCode: Cc1c(COc2ccc(CNCCN(C)C)cc2[N+](=O)[O-])cccc1-c1ccccc1
measuredValue: 7.42

smilesCode: Cc1c(COc2cc(OCc3cccc(C#N)c3)c(CN3CCCC[C@H]3C(=O)N[C@@H](CO)C(=O)O)cc2[N+](=O)[O-])cccc1-c1ccccc1
measuredValue: 8.10

smilesCode: Cc1c(COc2ccc(CN3CCCC[C@H]3C(=O)N[C@@H](C)C(=O)O)cc2[N+](=O)[O-])cccc1-c1ccccc1
measuredValue: 7.90

smilesCode: Cc1c(COc2ccc(CN3CCCC[C@H]3C(=O)O)cc2[N+](=O)[O-])cccc1-c1ccccc1
measuredValue: 8.06

smilesCode: Cc1c(COc2cc(OCc3cccc(C#N)c3)c(CN[C@H](C(=O)O)[C@@H](C)O)cc2[N+](=O)[O-])cccc1-c1ccccc1
measuredValue: 8.57

smilesCode: Cc1c(COc2ccc(CN3CCC[C@H]3C(=O)NCCO)cc2[N+](=O)[O-])cccc1-c1ccccc1
measuredValue: 7.25

smilesCode: Cc1c(COc2cc(OCc3cccc(C#N)c3)c(CN3CCCC[C@H]3C(=O)NCC(C)(C)O)cc2[N+](=O)[O-])cccc1-c1ccccc1
measuredValue: 8.32

smilesCode: Cc1c(COc2ccc(CNCc3ccoc3)cc2[N+](=O)[O-])cccc1-c1ccccc1
measuredValue: 7.06

smilesCode: Cc1c(COc2cc(OCc3cccc(C#N)c3)c(CN[C@@H](CO)C(=O)O)cc2[N+](=O)[O-])cccc1-c1ccccc1
measuredValue: 7.89
